- Test system: K562
- procedure_details: NCI tumour cell line growth inhibition, 48 h
Calls of active or inactive are those of the source. No stated cut-off is given here; in the data, active = GI50 up to about 1.1 µM and inactive = higher.
Just give me one of these, please: class 1 (active), class 0 (inactive)

Take a look at these entries with their results.
**Q:** Hi, sorry to bother you, what did the test record for `COc1ccc(C/C=C(\C)CCO)cc1` ?
**A:** class 0

**Q:** Another compound to check: C=C1CC(Cn2cc(Br)c(=O)[nH]c2=O)(c2ccc(-c3ccccc3)cc2)OC1=O (configuration not stated)
**A:** class 1

**Q:** Another compound to check: CCOC(=O)NC(Nc1ncccn1)(C(=O)OCC)C(F)(F)F (configuration not stated)
**A:** class 0

New cases:
**Q:** Hi, sorry to bother you, what did the test record for `O=C(N/N=C\c1ccc([N+](=O)[O-])cc1)Nc1ccc2ccccc2c1` ?
**A:** class 0

**Q:** Another compound to check: `O=C1c2c(c(-c3ccccc3)c(-c3ccccc3)c(-c3ccccc3)c2-c2ccccc2)C(=O)N1c1cccc(Br)c1`
**A:** class 0

**Q:** Another compound to check: C=C1C(=O)O[C@H]2C1C[C@@H](OC(C)=O)/C(C)=C/CC[C@@]1(C)O[C@H]21 (some centres not stated)
**A:** class 0

**Q:** Another compound to check: O=C1/C(=C/c2ccc(Cl)cc2)CCC1CN1CCOCC1 (configuration not stated)
**A:** class 0

**Q:** Another compound to check: `CCOC(=O)c1cc2c([N+](=O)[O-])c(N)ccc2s1`
**A:** class 0

**Q:** Another compound to check: `C[n+]1c2ccccc2c(N=[N+]=[N-])c2ccccc21`
**A:** class 0

**Q:** Another compound to check: `CC(=O)N1[C@H](C(=O)O)CS[C@H]1c1ccncc1`
**A:** class 0

**Q:** Another compound to check: `Cc1cccc(NC(=S)Nc2ccccc2Cl)n1`
**A:** class 0

**Q:** Another compound to check: `CNC(=O)OCc1c2ccncc2c(C)c2c1[nH]c1ccc(OC)cc12`
**A:** class 1

**Q:** Another compound to check: `Nc1nc(N)c(-c2ccc(Cl)cc2)c(CCC(=O)Nc2cccc(C(F)(F)F)c2)n1`
**A:** class 0

**Q:** Another compound to check: `Cc1nc(-c2ccccc2)c(C)n2c1nc1ccccc12`
**A:** class 0

**Q:** Another compound to check: `CC1=N/C(=C\c2ccc(C)cc2)C(=O)O1`
**A:** class 0

**Q:** Another compound to check: `Cc1cc(C)nc(NS(=O)(=O)c2ccc(Nc3nncc(=O)n3N)cc2)n1`
**A:** class 0

**Q:** Another compound to check: O=C1c2nn(-c3ccccc3)nc2C(c2ccccc2)N1c1ccccc1 (configuration not stated)
**A:** class 0

**Q:** Another compound to check: `ClCc1nn(-c2ccccc2)c(CCl)c1CCl`
**A:** class 0

**Q:** Another compound to check: `CCOc1ccc(/C(C=O)=C(\Cl)c2ccc(OC)c(OC)c2)cc1`
**A:** class 0

**Q:** Another compound to check: Cc1c(C#N)c(N)n(C2OCC(O)C(O)C2O)c(=S)c1C#N (configuration not stated)
**A:** class 0

**Q:** Another compound to check: O=P1(NCCCl)OCCC(OO)N1CCCl (configuration not stated)
**A:** class 0

**Q:** Another compound to check: COc1cc2c3c(c1OC)/C(=N/OS(=O)(=O)c1ccc(C)cc1)CC3N(S(=O)(=O)c1ccc(C)cc1)CC2 (configuration not stated)
**A:** class 0

###

- System: DU-145
- procedure_details: NCI tumour cell line growth inhibition, 48 h
Active and inactive are the calls of the source. Rule as the data show it: active = GI50 up to about 1.1 µM and inactive = higher.
quantity_measured: GI50

**Q:** What value of GI50 has been recorded for this entry: `O=c1c2cccnc2cc(-c2ccccc2)n1CCO`
**A:** > 100 µM (inactive)

**Q:** Another molecule to check: `O=c1[nH]c2ccc(C(F)(F)F)cc2nc1C(F)(F)F`
**A:** 23.2 µM (inactive)

**Q:** Another molecule to check: `C=C(CN(C)C)C(=O)c1ccc(OC)cc1`
**A:** 4.97 µM (inactive)

New cases:
**Q:** What value of GI50 has been recorded for this entry: CCC(CO)Nc1nc(NCc2ccccc2)c2ncn(C(C)C)c2n1 (stereo not drawn) [(RS)-ROSCOVITINE]
**A:** 35.8 µM (inactive)

**Q:** Another molecule to check: `COc1ccc(C/C=C(\C)CCO)cc1`
**A:** > 100 µM (inactive)

**Q:** Another molecule to check: `CNC(=O)N1CN(c2ccccc2)C2(CCN(Cc3ccccc3)CC2)C1=O`
**A:** > 100 µM (inactive)

**Q:** Another molecule to check: `CN(CCc1ccccn1)C(=S)N/N=C/c1ccccn1`
**A:** 0.298 µM (active)

**Q:** Another molecule to check: `CCOC(=O)NC(Nc1ccc(Cl)cn1)(C(F)(F)F)C(F)(F)F`
**A:** > 100 µM (inactive)

###

- System: OVCAR-8
- procedure_details: NCI tumour cell line growth inhibition, 48 h
Active and inactive are the calls of the source. No stated cut-off is given here; in the data, active = GI50 up to about 1.1 µM and inactive = higher.
Measured GI50, listed per entry.

Worked cases, GI50 given:
**Q:** What value of GI50 has been recorded for this entry: CCCCN1C(=O)CC2[C@@H]3CCc4cc(OC(C)=O)ccc4C3CC[C@]2(C)C1=O (some centres undefined)
**A:** > 10 µM (inactive)

**Q:** Another compound to check: `Nc1nc(N)c(-c2ccc(Cl)cc2)c(CCC(=O)Nc2cccc(C(F)(F)F)c2)n1`
**A:** > 100 µM (inactive)

**Q:** Another compound to check: CC(=O)N(C)C(C(=O)N1CC(C)CC1C(=O)N(C)C1C(=O)NC(CC(C)C)C(=O)N2CC(C)CC2C(=O)NC(CC(C)C)C(=O)N(C)C(C(C)C)C(=O)N2CCCC2C(=O)N(C)C(CC(C)C)C(=O)NCC(=O)OC1C)C(C)C (centres undefined)
**A:** > 100 µM (inactive)

**Q:** Another compound to check: `Brc1ccc2c(c1)C1=C(CO2)Cc2ccccc2O1`
**A:** 20.7 µM (inactive)

**Q:** Another compound to check: COC(=O)CCC(C)[C@H]1CCC2C3C(C[C@H](OC(C)=O)[C@@]21C)[C@@]1(C)CCC2(C[C@H]1C[C@H]3OC(C)=O)OOC1(CCCCC1)OO2 (some centres undefined)
**A:** 17.6 µM (inactive)

**Q:** Another compound to check: `CC1=N/C(=C\c2ccc(C)cc2)C(=O)O1`
**A:** > 100 µM (inactive)

**Q:** Another compound to check: `CCOC(=O)c1cn2c(n1)sc1cc(F)ccc12`
**A:** > 100 µM (inactive)

**Q:** Another compound to check: CCOC(=O)C(C)c1c(C(=O)c2ccc(C)nc2)c2ccccc2n1C (centres undefined)
**A:** > 100 µM (inactive)

--- query ---
**Q:** What value of GI50 has been recorded for this entry: `O=C(NC(=O)c1cn(CCNCCO)c(=O)[nH]c1=O)OCc1ccccc1`
**A:** > 100 µM (inactive)

###

- Tested on: EKVX
- procedure_details: NCI tumour cell line growth inhibition, 48 h
Active and inactive are the calls of the source. No stated cut-off is given here; in the data, active = GI50 up to about 1.1 µM and inactive = higher.
quantity_measured: GI50

**Q:** What value of GI50 has been recorded for this entry: C=C1C(C)C2C(Cc3ccccc3)NC(=O)C23OC(=O)/C=C\CC(=O)CCC(C)C/C=C/C3C1O (stereo not drawn)
**A:** 2.48 µM (inactive)

**Q:** Another compound to check: `O=C(N/N=C\c1ccc([N+](=O)[O-])cc1)Nc1ccc2ccccc2c1`
**A:** 44.6 µM (inactive)

**Q:** Another compound to check: `Cc1nc2c(s/c(=N\N)n2-c2ccccc2)c(=O)n1C`
**A:** > 100 µM (inactive)

New cases:
**Q:** What value of GI50 has been recorded for this entry: `Cn1ncc2[nH]cnc2c1=S`
**A:** > 100 µM (inactive)

**Q:** Another compound to check: `C[n+]1c2ccccc2c(N=[N+]=[N-])c2ccccc21`
**A:** 8.32 µM (inactive)

**Q:** Another compound to check: `CSc1nc(C)cc(Nc2ccc(O)c(CN3CCCCC3)c2)n1`
**A:** 27.5 µM (inactive)

**Q:** Another compound to check: `Nn1c(CCCCCCCCc2nnc(COc3ccc(Cl)cc3Cl)n2N)nnc1COc1ccc(Cl)cc1Cl`
**A:** 38.3 µM (inactive)

###

- Tested on: LXFL 529
- procedure_details: NCI tumour cell line growth inhibition, 48 h
The source made the active and inactive calls. Rule as the data show it: active = GI50 up to about 1.1 µM and inactive = higher.
Just give me one of these, please: active, inactive

**Q:** Hi, sorry to bother you, what did the test record for `COC(=O)c1ccc(Cl)cc1NC(=O)C1CCCCC1` ?
**A:** inactive

New cases:
**Q:** Hi, sorry to bother you, what did the test record for NC(=O)/C(=N\NC(=O)c1cc2ccccc2cc1O)C1C(=O)N(c2ccccc2)N=C1N (stereo not given) ?
**A:** inactive

**Q:** Another molecule to check: `CCOC(=O)NC(=O)c1cn(CCOCCOC(=O)NCCCCCCNC(=O)OCCOCCn2cc(C(=O)NC(=O)OCC)c(=O)[nH]c2=O)c(=O)[nH]c1=O`
**A:** inactive

**Q:** Another molecule to check: CC1=C(N2CC2)C(=O)c2nc3n(c2C1=O)CCC3OC(=O)CCl (stereo not given)
**A:** active

**Q:** Another molecule to check: `O=C(NC(=O)c1cn(CCNCCO)c(=O)[nH]c1=O)OCc1ccccc1`
**A:** inactive

**Q:** Another molecule to check: C[Si](C)(C)OC1CC(=O)OC1n1cc(F)c(=O)[nH]c1=O (stereo not given)
**A:** inactive

**Q:** Another molecule to check: `O=C(/C=C/c1ccccc1O)c1ccccc1Cl`
**A:** inactive

**Q:** Another molecule to check: COC1OC(COS(=O)(=O)c2ccc(C)cc2)C(O)C(OS(=O)(=O)c2ccc(C)cc2)C1OS(=O)(=O)c1ccc(C)cc1 (stereo not given)
**A:** inactive

**Q:** Another molecule to check: `Cc1cc2c(=O)cc(-c3ccc(Cl)cc3)oc2c(C(=O)O)c1C`
**A:** inactive

**Q:** Another molecule to check: C/C=C1\CN2CCc3c([nH]c4ccccc34)C2C=C1CCO (stereo not given)
**A:** inactive

Numbers sourced from ChEMBL document CHEMBL1201862.
